Data origin: the NIST ThermoML archive (doi:10.1021/je900550v)

details: 320.65 K; 101.33 kPa; Liquid; Pulse-echo method
Recorded speed of sound by entry
All answers are understood in m/s, so give the number only.

Known results for compounds:
| Compound | Unit tag | speed of sound |
| --- | --- | --- |
| CC(C)C(=O)[O-].C[NH2+]CCO [2-hydroxy-N-methylethanaminium isobutyrate] | m/s | 1547.7 |
| CCC(=O)[O-].C[NH2+]CCO [2-hydroxy-N-methylethanaminium propionate] | m/s | 1623.4 |
| CCCC(=O)[O-].C[NH2+]CCO [N-methyl-2-hydroxyethylammonium butanoate] | m/s | 1544 |
| C[NH2+]CCO.O=C[O-] [2-hydroxy-N-methylethanaminium formate] | m/s | 1771.5 |

Could you now consider this next compound?
Record request: speed of sound value, item CCCCC(=O)[O-].C[NH2+]CCO [2-hydroxy-N-methylethanaminium pentanoate]
1479.2

* * *

settings: 304.65 K; 101.33 kPa; Liquid; Vibrating tube method
Recorded mass density by entry
All answers are understood in kg/m3, so give the number only.

| Molecule | Experimental readout | Test value |
| --- | --- | --- |
| CCCCC(=O)[O-].C[NH2+]CCO [2-hydroxy-N-methylethanaminium pentanoate] | mass density | 1011.87 |
| CCC(=O)[O-].C[NH2+]CCO [2-hydroxy-N-methylethanaminium propionate] | mass density | 1067.08 |
| C[NH2+]CCO.O=C[O-] [2-hydroxy-N-methylethanaminium formate] | mass density | 1124.62 |

Record request: mass density value, item CC(=O)[O-].C[NH2+]CCO [N-methyl-2-hydroxyethylammonium acetate]
1096.95

Repeat for the following molecule: CCCC(=O)[O-].C[NH2+]CCO [N-methyl-2-hydroxyethylammonium butanoate]
1034.88

Repeat for the following molecule: CC(C)C(=O)[O-].C[NH2+]CCO [2-hydroxy-N-methylethanaminium isobutyrate]
1039.19

* * *

settings: 309.15 K; 101.33 kPa; Liquid; Vibrating tube method
Recorded mass density by entry
All answers are understood in kg/m3, so give the number only.

| Compound | Unit tag | mass density |
| --- | --- | --- |
| CCCCC(=O)[O-].C[NH2+]CCO [2-hydroxy-N-methylethanaminium pentanoate] | kg/m3 | 1008.84 |
| CCC(=O)[O-].C[NH2+]CCO [2-hydroxy-N-methylethanaminium propionate] | kg/m3 | 1064.14 |
| CC(=O)[O-].C[NH2+]CCO [N-methyl-2-hydroxyethylammonium acetate] | kg/m3 | 1094.22 |

Record request: mass density value, item CCCC(=O)[O-].C[NH2+]CCO [N-methyl-2-hydroxyethylammonium butanoate]
1031.86

Repeat for the following compound: CC(C)C(=O)[O-].C[NH2+]CCO [2-hydroxy-N-methylethanaminium isobutyrate]
1036.28

Repeat for the following compound: C[NH2+]CCO.O=C[O-] [2-hydroxy-N-methylethanaminium formate]
1122.11

* * *

details: 298.65 K; 101.33 kPa; Liquid; Pulse-echo method
Experimental readout: speed of sound (m/s)
All answers are understood in m/s, so give the number only.

Known results for compounds:
| Compound | Unit tag | speed of sound |
| --- | --- | --- |
| CCC(=O)[O-].C[NH2+]CCO [2-hydroxy-N-methylethanaminium propionate] | m/s | 1688.5 |
| CCCCC(=O)[O-].C[NH2+]CCO [2-hydroxy-N-methylethanaminium pentanoate] | m/s | 1547.2 |

Record request: speed of sound value, item CCCC(=O)[O-].C[NH2+]CCO [N-methyl-2-hydroxyethylammonium butanoate]
1613

Repeat for the following compound: CC(C)C(=O)[O-].C[NH2+]CCO [2-hydroxy-N-methylethanaminium isobutyrate]
1609.9

Repeat for the following compound: C[NH2+]CCO.O=C[O-] [2-hydroxy-N-methylethanaminium formate]
1814.3

* * *

Recorded mass density by entry
settings: 280.65 K; 101.33 kPa; Liquid; Vibrating tube method
All answers are understood in kg/m3, so give the number only.

Known results for compounds:
| Compound | Experimental readout | Unit tag | Test value |
| --- | --- | --- | --- |
| CCC(=O)[O-].C[NH2+]CCO [2-hydroxy-N-methylethanaminium propionate] | mass density | kg/m3 | 1082.66 |
| C[NH2+]CCO.O=C[O-] [2-hydroxy-N-methylethanaminium formate] | mass density | kg/m3 | 1138.02 |
| CC(C)C(=O)[O-].C[NH2+]CCO [2-hydroxy-N-methylethanaminium isobutyrate] | mass density | kg/m3 | 1054.52 |
| CCCC(=O)[O-].C[NH2+]CCO [N-methyl-2-hydroxyethylammonium butanoate] | mass density | kg/m3 | 1051.04 |
| CCCCC(=O)[O-].C[NH2+]CCO [2-hydroxy-N-methylethanaminium pentanoate] | mass density | kg/m3 | 1028.01 |

Could you now consider this next compound?
Record request: mass density value, item CC(=O)[O-].C[NH2+]CCO [N-methyl-2-hydroxyethylammonium acetate]
1111.33

* * *

experiment: refractive index (Na D-line) (dimensionless); settings: 318.15 K; 101.33 kPa; Liquid; Standard Abbe refractometry
Numbers after ± are expanded uncertainties.
Experimental readout: refractive index

| Compound | Experimental readout | Test value |
| --- | --- | --- |
| CCCC(=O)[O-].C[NH2+]CCO [N-methyl-2-hydroxyethylammonium butanoate] | refractive index | 1.4488 ± 0.0005 |
| C[NH2+]CCO.O=C[O-] [2-hydroxy-N-methylethanaminium formate] | refractive index | 1.4406 ± 0.0005 |
| CCC(=O)[O-].C[NH2+]CCO [2-hydroxy-N-methylethanaminium propionate] | refractive index | 1.4478 ± 0.0005 |

Could you now consider this next compound?
Record request: refractive index value, item CCCCC(=O)[O-].C[NH2+]CCO [2-hydroxy-N-methylethanaminium pentanoate]
1.4474 ± 0.0005

* * *

conditions: 288.65 K; 101.33 kPa; Liquid; Vibrating tube method
Recorded mass density by entry
All answers are understood in kg/m3, so give the number only.

| Molecule | Unit tag | Test value |
| --- | --- | --- |
| CCC(=O)[O-].C[NH2+]CCO [2-hydroxy-N-methylethanaminium propionate] | kg/m3 | 1077.46 |

Record request: mass density value, item CCCCC(=O)[O-].C[NH2+]CCO [2-hydroxy-N-methylethanaminium pentanoate]
1022.65

Repeat for the following molecule: CC(C)C(=O)[O-].C[NH2+]CCO [2-hydroxy-N-methylethanaminium isobutyrate]
1049.36

Repeat for the following molecule: CCCC(=O)[O-].C[NH2+]CCO [N-methyl-2-hydroxyethylammonium butanoate]
1045.67

Repeat for the following molecule: CC(=O)[O-].C[NH2+]CCO [N-methyl-2-hydroxyethylammonium acetate]
1106.5

Repeat for the following molecule: C[NH2+]CCO.O=C[O-] [2-hydroxy-N-methylethanaminium formate]
1133.55

* * *

conditions: 334.41 K; 101.33 kPa; Liquid; Vibrating tube method
Experimental readout: mass density (kg/m3)
All answers are understood in kg/m3, so give the number only.

Known results for molecules:
| Molecule | Unit tag | mass density |
| --- | --- | --- |
| CCCC(=O)[O-].C[NH2+]CCO [N-methyl-2-hydroxyethylammonium butanoate] | kg/m3 | 1014.36 |
| CCCCC(=O)[O-].C[NH2+]CCO [2-hydroxy-N-methylethanaminium pentanoate] | kg/m3 | 991.358 |
| CC(=O)[O-].C[NH2+]CCO [N-methyl-2-hydroxyethylammonium acetate] | kg/m3 | 1078.55 |
| CC(C)C(=O)[O-].C[NH2+]CCO [2-hydroxy-N-methylethanaminium isobutyrate] | kg/m3 | 1019.42 |
| C[NH2+]CCO.O=C[O-] [2-hydroxy-N-methylethanaminium formate] | kg/m3 | 1108.3 |

Record request: mass density value, item CCC(=O)[O-].C[NH2+]CCO [2-hydroxy-N-methylethanaminium propionate]
1047.16

* * *

Recorded mass density by entry
details: 317.16 K; 101.33 kPa; Liquid; Vibrating tube method
All answers are understood in kg/m3, so give the number only.

Known results for compounds:
| Compound | Test value |
| --- | --- |
| C[NH2+]CCO.O=C[O-] [2-hydroxy-N-methylethanaminium formate] | 1117.65 |
| CCC(=O)[O-].C[NH2+]CCO [2-hydroxy-N-methylethanaminium propionate] | 1058.84 |
| CC(=O)[O-].C[NH2+]CCO [N-methyl-2-hydroxyethylammonium acetate] | 1089.33 |

Record request: mass density value, item CC(C)C(=O)[O-].C[NH2+]CCO [2-hydroxy-N-methylethanaminium isobutyrate]
1031.02

Repeat for the following compound: CCCCC(=O)[O-].C[NH2+]CCO [2-hydroxy-N-methylethanaminium pentanoate]
1003.38

Repeat for the following compound: CCCC(=O)[O-].C[NH2+]CCO [N-methyl-2-hydroxyethylammonium butanoate]
1026.41

* * *

details: 335.66 K; 101.33 kPa; Liquid; Pulse-echo method
Recorded speed of sound by entry
All answers are understood in m/s, so give the number only.

Record request: speed of sound value, item CCCCC(=O)[O-].C[NH2+]CCO [2-hydroxy-N-methylethanaminium pentanoate]
1433.2
